- Test system: NCI-H460
- Assay summary: Cytotoxicity against human NCI-H460 cells assessed as reduction in cell viability by CCK-8 assay
- Type: functional, cell-based
Experimental endpoint: IC50 (µM)
Write the value in µM as a bare number.

(Q) Query: IC50; subject: CC[C@@]1(C)CCC[C@]2(C)[C@H]3C[C@H](OC(=O)CCC(C)C)[C@]4(C)C(C=O)=CC[C@H]4[C@]3(C)CC[C@@H]12
(A) 7.2

(Q) Query: IC50; subject: CCCCC(=O)O[C@H]1C[C@@H]2[C@@]3(C)CCC[C@](C)(CC)[C@@H]3CC[C@@]2(C)[C@@H]2CC=C(C=O)[C@@]12C
(A) 10.2

(Q) Query: IC50; subject: CC[C@@]1(C)CCC[C@]2(C)[C@H]3C[C@H](OC(=O)C[C@H](O)C(C)C)[C@]4(C)C(C=O)=CC[C@H]4[C@]3(C)CC[C@@H]12
(A) 2

(Q) Query: IC50; subject: CCCCC(=O)O[C@H]1C[C@@H]2[C@@]3(C)CCC[C@](C)(CC)[C@@H]3CC[C@@]2(C)[C@@H]2CC=C(C(=O)O)[C@@]12C
(A) 13

(Q) Query: IC50; subject: CC[C@@]1(C)CCC[C@]2(C)[C@H]3C[C@H](OC(=O)CCC(C)C)[C@]4(C)C(C(=O)O)=CC[C@H]4[C@]3(C)CC[C@@H]12
(A) 11

* * *

Answer each item with its documented pIC50.
- Test system: MDA-MB-231
- Assay summary: Cytotoxicity against human MDA-MB-231 cells assessed as reduction in cell viability by CCK-8 assay
- Format: functional, cell-based
Keep it numeric: pIC50 is minus log10 of the concentration in mol/L.

(Q) Write down the reported pIC50 of CC[C@@]1(C)CCC[C@]2(C)[C@H]3C[C@H](OC(=O)CCC(C)C)[C@]4(C)C(C=O)=CC[C@H]4[C@]3(C)CC[C@@H]12 , test system: MDA-MB-231.
(A) 4.49

(Q) Write down the reported pIC50 of CC[C@@]1(C)CCC[C@]2(C)[C@H]3C[C@H](OC(=O)C[C@H](O)C(C)C)[C@]4(C)C(C=O)=CC[C@H]4[C@]3(C)CC[C@@H]12 , test system: MDA-MB-231.
(A) 4.88

(Q) Write down the reported pIC50 of Cn1nnc2c(C(N)=O)ncn2c1=O [TEMOZOLOMIDE] , test system: MDA-MB-231.
(A) 4.84

* * *

- Tested on: Vibrio vulnificus
- Assay summary: Antibacterial activity against Vibrio vulnificus assessed as bacterial growth inhibition
- Type: functional
Experimental endpoint: MIC

(Q) Query: MIC; subject: CC[C@@]1(C)CCC[C@]2(C)[C@H]3C[C@H](OC(=O)C[C@H](O)C(C)C)[C@]4(C)C(C=O)=CC[C@H]4[C@]3(C)CC[C@@H]12
(A) > 64 µg/mL

(Q) Query: MIC; subject: CC[C@@]1(C)CCC[C@]2(C)[C@H]3C[C@H](OC(=O)CCC(C)C)[C@]4(C)C(C=O)=CC[C@H]4[C@]3(C)CC[C@@H]12
(A) 2 µg/mL

(Q) Query: MIC; subject: CC[C@@]1(C)CCC[C@]2(C)[C@H]3C[C@H](OC(=O)CCC(C)C)[C@]4(C)C(C(=O)O)=CC[C@H]4[C@]3(C)CC[C@@H]12
(A) 4 µg/mL
